- measurement description: Acute toxicity test (LD50), rats
- conditions: rat, in vivo, po, Peroral, male, 5-week-old SD-TCL rats; Litchfield-Wilcoxon method
quantity name: LD50 (mg/kg)
Write the number in mg/kg without appending the unit.

Note LD50 for the compound shown: C=C1/C(=C\C=C2/CCC[C@]3(C)[C@@H]([C@H](C)CCCC(C)C)CC[C@@H]23)C[C@@H](O)C[C@@H]1O [la-hydroxyvitamin D3, 1α-hydroxyvitamin D3]
0.62

----------
- measurement description: Acute toxicity test (LD50), rats
- conditions: rat, in vivo, po, Peroral, female, 5-week-old SD-TCL rats; Litchfield-Wilcoxon method
quantity name: LD50 (mg/kg)
Write the number in mg/kg without appending the unit.

Note LD50 for the molecule shown: C=C1/C(=C\C=C2/CCC[C@]3(C)[C@@H]([C@H](C)CCCC(C)C)CC[C@@H]23)C[C@@H](O)C[C@@H]1O [la-hydroxyvitamin D3, 1α-hydroxyvitamin D3]
0.743

----------
- measurement description: Acute toxicity test (LD50), mice
- conditions: mouse, in vivo, sc, subcutaneous, male, 5-week-old ddY mice; Litchfield-Wilcoxon method
quantity name: LD50 (mg/kg)
Write the number in mg/kg without appending the unit.

Note LD50 for the compound shown: C=C1/C(=C\C=C2/CCC[C@]3(C)[C@@H]([C@H](C)CCCC(C)C)CC[C@@H]23)C[C@@H](O)C[C@@H]1O [la-hydroxyvitamin D3, 1α-hydroxyvitamin D3]
0.055

----------
- measurement description: Acute toxicity test (LD50), rats
- conditions: rat, in vivo, sc, subcutaneous, male, 5-week-old SD-TCL rats; Litchfield-Wilcoxon method
quantity name: LD50 (mg/kg)
Write the number in mg/kg without appending the unit.

Note LD50 for the compound shown: C=C1/C(=C\C=C2/CCC[C@]3(C)[C@@H]([C@H](C)CCCC(C)C)CC[C@@H]23)C[C@@H](O)C[C@@H]1O [la-hydroxyvitamin D3, 1α-hydroxyvitamin D3]
0.056
